system: OVCAR-3-derived ovarian cancer stem-like cells (spheroids); test: cell growth relative to untreated control; higher = more growth (less inhibition); details: 2.29 µM; 96 h

molecule: c1ccc2c(c1)nnn1c3cnccc3nc21
cell growth, %: 58.8

molecule: COc1c(O[C@@H]2O[C@H](CO)[C@@H](O)[C@H](O)[C@H]2O)cc2c(c1OC)-c1ccc(OC)c(=O)cc1[C@@H](NC(C)=O)CC2
cell growth, %: 119

molecule: OC(CN1CCCCC1)c1ccc(/C=C/c2ccc(Cl)cc2)cc1 (centres undefined)
cell growth, %: 112

molecule: Cc1nc(N)nc(N)c1-c1ccc(Cl)c(Cl)c1
cell growth, %: 102

molecule: CCN(CC)CCCNc1ncc(C)c2[nH]c3ccncc3c12
cell growth, %: 82.7

molecule: Nc1ccn([C@@H]2O[C@H](CO)[C@@H](O)[C@@H]2O)c(=O)n1
cell growth, %: 76.6

molecule: O=C1C=CC(=O)c2c(O)c(N3CCN(CCOCCO)CC3)c(Br)c(O)c21
cell growth, %: 18

molecule: Clc1ccc(-c2c(C3=NCCCN3)nnn2-c2ccc(Cl)cc2)cc1
cell growth, %: 156

molecule: O=c1oc2cc(O)ccc2c2oc3cc(O)ccc3c12
cell growth, %: 124

molecule: C/C(=N\NC(=S)N1CCC1)c1ccccn1
cell growth, %: 20.6

molecule: O=[N+]([O-])c1cccc2c(N=Nc3ccc4ccccc4c3O)c(O)cc(S(=O)(=O)O)c12
cell growth, %: 74.2

molecule: CON(C)C(=O)C1CCCO1 (centres undefined)
cell growth, %: 79.4

molecule: Nc1nc2c(ncn2[C@@H]2O[C@H](CO)[C@@H](O)[C@H]2O)c(=O)[nH]1
cell growth, %: 107

molecule: CCc1cccc(CC)c1NC(=O)C(C#N)C1=C(Cl)C(=O)c2ccccc2C1=O (centres undefined)
cell growth, %: 70.3

molecule: S=c1nc[nH]c2nc[nH]c12
cell growth, %: 95.2

molecule: CCOC(=O)CCc1c(C)c2c(O)cc(O)cc2oc1=O
cell growth, %: 100

molecule: O=C1C(c2cnc3ccccc3n2)=C(O)c2ccccc21
cell growth, %: 197

molecule: O=C(CC1(O)C(=O)Nc2c(Cl)cc(Cl)cc21)c1cccc2ccccc12 (centres undefined)
cell growth, %: 90.9

molecule: COc1ccc(-n2/c(=N/C(=S)N(C)C)ss/c2=N\C(=S)N(C)C)cc1
cell growth, %: 111

molecule: Nc1ccccc1N
cell growth, %: 88.4

molecule: O=c1[nH]c(=O)n(C2CCCO2)cc1F (centres undefined)
cell growth, %: 24.9

molecule: CO[C@H]1C[C@@H]2CC[C@@H](C)[C@@](O)(O2)C(=O)C(=O)N2CCCC[C@H]2C(=O)O[C@H]([C@H](C)C[C@@H]2CC[C@@H](O)[C@H](OC)C2)CC(=O)[C@H](C)/C=C(\C)[C@@H](O)[C@@H](OC)C(=O)[C@H](C)C[C@H](C)/C=C/C=C/C=C/1C
cell growth, %: 97

molecule: Cc1cc(C)c(NC(=O)/C=C/c2ccccc2)c(C)c1
cell growth, %: 89.7

molecule: Nc1nc(N)c2ncn(-c3ccccc3)c2n1
cell growth, %: 162

molecule: O=C(CC1(O)C(=O)Nc2c(Cl)cc(Cl)cc21)c1cccc([N+](=O)[O-])c1 (centres undefined)
cell growth, %: 88.1

molecule: NC1N=C(c2ccc(Cl)cc2)C2=C(N1)c1ccccc1CC2 (centres undefined)
cell growth, %: 85.7

molecule: O=C1C(Cl)=C(N2CCN(C3=C(Cl)C(=O)c4ccccc4C3=O)CC2)C(=O)c2ccccc21
cell growth, %: 52.1

molecule: C=C(C#N)C(=O)OCC(CC)CC.C=C(C#N)C(=O)OCC(CC)CC.CS(C)=O.CS(C)=O.Nc1c(N=Nc2ccc(-c3ccc(N=Nc4cc(S(=O)(=O)[O-])c5ccccc5c4N)cc3)cc2)cc(S(=O)(=O)[O-])c2ccccc12.[Pt+2]
cell growth, %: 107

molecule: [Cl][Pt+2][Cl].[NH-]C1CCCCC1[NH-] (centres undefined)
cell growth, %: 98.5

molecule: COc1ccc2nc(NC(=O)C(=O)CC(=O)c3ccc(Cl)cc3)sc2c1
cell growth, %: 109

molecule: CN(C)CCOC1(Cc2ccc(F)cc2)CCC(C(C)(C)C)CC1 (centres undefined)
cell growth, %: 109

molecule: O=Nc1ccc(O)c2ncccc12
cell growth, %: 82

molecule: CS(=O)(=O)OCCCCOS(C)(=O)=O
cell growth, %: 121

molecule: CC(=O)OC[C@H]1O[C@@H](NC(=O)N(CCCl)N=O)[C@H](OC(C)=O)[C@@H](OC(C)=O)[C@@H]1OC(C)=O
cell growth, %: 115

molecule: CCN(CC)CCNc1ccc(C)c2sc3ccccc3c(=O)c12
cell growth, %: 77.7

molecule: Cc1nc2c(nc1C)C(=O)c1ccccc1C2=O
cell growth, %: 54.6

molecule: N#Cc1ccccc1NC(=O)C(=O)C(C(=O)c1ccccc1F)C1OC(=O)c2ccccc21 (centres undefined)
cell growth, %: 98.8

molecule: COCCOC1=C(Cl)C(=O)c2c(O)ccc(O)c2C1=O
cell growth, %: 114

molecule: CCCC(=O)[O-].[Na+]
cell growth, %: 88.2

This collection of values is drawn from the supplement of paper PMC3484114.
